A collection of binders and their measured EC50
Molecular target: T1, human claudin 18 isoform 2 (claudin 18.2) (human)
T1 construct: Recombinant on transfected CHO cells (CHO-CLDN18.2) or endogenous on tumor cell lines PATU8988S, NUGC-4, KATOIII; the cell line is named under assay; also called CLDN18.2
Test: imaging, PATU8988S cells (endogenous CLDN18.2); +++ = EC50 between 2 nM and 20 nM

In the examples that follow, each entry is paired with its recorded EC50.
Ms18 (antibody, V domains shown) VH: QVQLKESGPGLVAPSQSLSITCTVSGFSLISYGVHWVRQPPGKGLEWLGVIWAGGNTNYNSALMSRLSISKDNSKSQVFLKMNSLQTDDTAMYYCARVYYGNSFDYWGQGTTLTVSS VL: DIVMTQSPSSLTVTAGEKVTMSCKSSQSLLNSGNQKNYLTWYQQKPGQPPKLLIYWASTRQSGVPDRFTGSGSGTDFSLTISSVQAEDLAVYYCHNDYTYPLTFGAGTKLELK	2 to 20 nM
Ms3 (antibody, V domains shown) VH: EVMLVESGGGIVKPGGSLKLSCAASGFTLSSYTMSWVRQTPERRLEWVATIIIGGSYTYYPDSVKGRFTISRDNAKNTLYLQMSSLRSEDTAMYYCARQGYGNSFPYWGQGTLVTVSA VL: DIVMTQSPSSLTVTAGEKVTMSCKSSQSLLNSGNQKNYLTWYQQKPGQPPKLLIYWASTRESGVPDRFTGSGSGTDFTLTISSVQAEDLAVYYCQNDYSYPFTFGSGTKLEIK	2 to 20 nM

Next up:
Sure, the documented EC50 for Ms5 (antibody, V domains shown) VH: QVQLQQPGAELVKPGASVKLSCKASGYTFTRYLMHWVKQRPGQGLEWIGEINPSNGRTNYNEKFKSKAALTVDKSSSTAYMQLSSLTSEDSAVYYCARLAYGYGNAVDYWGQGTSVTVSS VL: DIVMTQSPSSLSVSAGEKVTMSCKSSQSLLNSGNQKNYLAWYQQKPGQPPKLLIYGASTRESGVPDRFTGSGSGTDFTLTISSVQAEDLAVYYCQNDHSYPLTFGAGTKLELK is 2 to 20 nM
